The values you see were collected from paper PMC2756588.

Molecular target: T1, Bzz1-1, P38822
T1 sequence (P38822 478-572, looked up): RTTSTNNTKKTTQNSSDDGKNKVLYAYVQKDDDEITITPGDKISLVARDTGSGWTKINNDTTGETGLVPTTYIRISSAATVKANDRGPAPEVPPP
Test: SPOT array
Settings: median of control spots 4446
Measured Attribute: SPOT intensity

Binder	Measured Attribute	Recorded Value
QPPLPSSAPPIPTSH	SPOT intensity	0
PELAPKREAPKPPAN	SPOT intensity	4

1: PLRRTVMSLPGNHDI
2: RRARRQMGIPTISQV
Which of the two gives a bigger number for SPOT intensity: 1 or 2 ? # reply format: chosen label
2

I: VNIPSPSSSPPPIPK
II: QPQRTAPKPPISAPR
III: KFIPSRPAPKPPSSA
Write the entries in order, lowest recorded SPOT intensity first. List the labels in the requested order.
III, I, II
(III: 0, I: 1, II: 2)

a: TTNRGPPPLPPRANV
b: ISNFVPPNLPMRRFK
Smaller SPOT intensity value? Options are a and b Please respond with the label that marks your chosen entry.
a
